meta.source: paper PMC7180767

test: in vitro; conditions: Spirostomum ambiguum, pH 7.4
Each entry below carries its recorded LC50 at 7 d.
READOUT_KIND: LC50 at 7 d (µg/mL)

1) Fc1ccc([C@@H]2CCNC[C@H]2COc2ccc3c(c2)OCO3)cc1 : 0.77
2) CN[C@H]1CC[C@@H](c2ccc(Cl)c(Cl)c2)c2ccccc21 : 0.27

###

experiment: in vitro; conditions: Spirostomum ambiguum, pH 7.4
READOUT_KIND: LC50 at 1 d

1) CN[C@H]1CC[C@@H](c2ccc(Cl)c(Cl)c2)c2ccccc21 : 0.41 µg/mL
2) Fc1ccc([C@@H]2CCNC[C@H]2COc2ccc3c(c2)OCO3)cc1 : 1.17 µg/mL

###

assay: in vitro; conditions: Spirostomum ambiguum, pH 6
READOUT_KIND: LC50 at 7 d (µg/mL)

1) Fc1ccc([C@@H]2CCNC[C@H]2COc2ccc3c(c2)OCO3)cc1 : 1.44
2) CN[C@H]1CC[C@@H](c2ccc(Cl)c(Cl)c2)c2ccccc21 : 0.33

###

assay: in vitro; settings: Spirostomum ambiguum, pH 6
Parameter: LC50 at 1 d. Scope: all listed entries.
READOUT_KIND: LC50 at 1 d (µg/mL)

1) CN[C@H]1CC[C@@H](c2ccc(Cl)c(Cl)c2)c2ccccc21 [Sertraline, sertraline] : 0.85
2) Fc1ccc([C@@H]2CCNC[C@H]2COc2ccc3c(c2)OCO3)cc1 [Paroxetine, paroxetine] : 4.53

###

assay: in vitro; conditions: Spirostomum ambiguum, pH 6.5
Measured LC50 at 7 d, listed per entry.
READOUT_KIND: LC50 at 7 d (µg/mL)

1) CN[C@H]1CC[C@@H](c2ccc(Cl)c(Cl)c2)c2ccccc21 [Sertraline, sertraline] : 0.18
2) Fc1ccc([C@@H]2CCNC[C@H]2COc2ccc3c(c2)OCO3)cc1 [Paroxetine, paroxetine] : 0.81
